Protocol Notes: chemical genetic growth profiling, strain panel (AID 1159580);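 also: tested at 20 µM; growth read once vehicle control cultures reached saturation at 30 °C; lower values mean less growth of the strain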
Condition Info: S. cerevisiae deletion strains, growth OD, locus YOL006C, strain TOP1
About 2,000 (36%) of roughly 5,500 compounds were called active. Not shown: some 18% with an inconclusive outcome. Rule as the data show it: active = normalized growth mostly below about 0.91 (no sharp cut-off); inconclusive = no clear call, values can overlap the other calls; inactive = mostly above about 0.92. This is one part of the list.
Possible outcomes: TRUE for active, FALSE for inactive

INSERT INTO results (compound, label_class) VALUES
  ('CCOC(=O)C(Cc1ccc(O)cc1)NC(C)=O (stereo not given)', 'FALSE'),
  ('N=c1ccn2c(n1)O[C@@H]1C2O[C@H](CO)[C@H]1O (stereo not given in full)', 'FALSE'),
  ('CCOC(=O)C1CCN(C(=S)Nc2ccccc2C(F)(F)F)CC1', 'FALSE'),
  ('C=C1C2CC[C@H]3[C@]4(C)C[C@H](OC5OC(CO)C(OS(=O)(=O)O)C(OS(=O)(=O)O)C5OC(=O)CC(C)C)C[C@@H](C(=O)O)[C@H]4CC[C@]3(C2)[C@H]1O (stereo not given in full)', 'FALSE'),
  ('NCCSSCCN', 'FALSE'),
  ('CN(C)CC/C=C1\c2ccccc2Sc2ccc(Cl)cc21', 'TRUE'),
  ('O=C1C=CC(=C(c2ccc(O)cc2)c2ccc(O)cc2)C=C1', 'FALSE'),
  ('C=C(C)[C@@H]1[C@H]2OC(=O)[C@@H]1[C@]1(O)C[C@H]3O[C@]34C(=O)O[C@H]2[C@]14C', 'FALSE'),
  ('CCOC(=O)[C@H](CCc1ccccc1)N[C@H]1CCc2ccccc2N(CC(=O)O)C1=O', 'FALSE'),
  ('CCOC(=O)CSC(=S)NCc1ccc(C)cc1', 'TRUE');
